Test: BSK_SAg_PBMCCytotoxicity: PBMC Cytotoxicity Assessment in the BioMAP Diversity Plus: SAg Assay (AID 2283093);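 further: PBMC viability measured as Alamar Blue reduction fluorescence at 546/580 nm; fitted both ways against DMSO so a hit may be loss or gain of signal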;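 on AC50: PBMC superantigen activated with SEB plus TSST-1 one hour after compound addition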
Settings: primary human HUVEC with PBMC
Calls of active or inactive are those of the source. How the source made its calls: active means hit-call score of the fitted dose curve at least 0.9, where 1 is the maximum; inactive means score below 0.9.
parameter: AC50

[[record]]
molecule = "CCOC(=O)C(C)OC(=O)c1cc(Oc2ccc(C(F)(F)F)cc2Cl)ccc1[N+](=O)[O-] (stereo unspecified)"
observed_result = "inactive"

[[record]]
molecule = "CNC(=O)Oc1cccc2ccccc12"
observed_result = "15.9 µM (active)"

[[record]]
molecule = "CCCN(CC)CC1COC2(CCC(C(C)(C)C)CC2)O1 (stereo unspecified)"
observed_result = "12.2 µM (active)"

[[record]]
molecule = "CCOc1nc(F)cc2nc(S(=O)(=O)Nc3c(Cl)cccc3Cl)nn12"
observed_result = "inactive"

[[record]]
molecule = "Cc1cc(C)nc(Nc2ccccc2)n1"
observed_result = "7.57 µM (active)"

[[record]]
molecule = "CC1(C)C(C(=O)OC(C#N)c2cccc(Oc3ccccc3)c2)C1(C)C (stereo unspecified)"
observed_result = "inactive"


* * *

Read-out: Vascular endothelial growth factor receptor 2 (Homo sapiens) (UniProt P35968)
Assay: BSK_4H_VEGFRII: BioMAP Diversity Plus: 4H Assay for Vascular endothelial growth factor receptor 2 (VEGFR2) Biomarker Activity (AID 2283031)
Conditions: primary human endothelial cells (HUVEC); actives raise or lower the signal
Calls of active or inactive are those of the source. How the source made its calls: active means hit-call score of the fitted dose curve at least 0.9, where 1 is the maximum; inactive means score below 0.9.
parameter: outcome

[[record]]
compound = "CCOP(=S)(OCC)Oc1nc(Cl)n(C(C)C)n1"
observed_result = "inactive"

[[record]]
compound = "Clc1cccc(C(Cl)(Cl)Cl)n1"
observed_result = "inactive"

[[record]]
compound = "CC(C)=CC1C(C(=O)OCc2coc(Cc3ccccc3)c2)C1(C)C (configuration not stated)"
observed_result = "inactive"

[[record]]
compound = "CCCN(CC)CC1COC2(CCC(C(C)(C)C)CC2)O1 (configuration not stated)"
observed_result = "inactive"

[[record]]
compound = "COc1ccc(-c2ccccc2)cc1NNC(=O)OC(C)C"
observed_result = "inactive"

[[record]]
compound = "CC(C)(C)C(=O)C(Oc1ccc(Cl)cc1)n1cncn1 (configuration not stated)"
observed_result = "inactive"

[[record]]
compound = "COC(=O)c1c(C(F)F)nc(C(F)(F)F)c(C2=NCCS2)c1CC(C)C"
observed_result = "inactive"

[[record]]
compound = "CS(=O)(=O)c1cc(C(F)(F)F)ccc1C(=O)c1cnoc1C1CC1"
observed_result = "inactive"

[[record]]
compound = "CCN(CC)C(=O)C(C)Oc1cccc2ccccc12 (configuration not stated)"
observed_result = "inactive"

[[record]]
compound = "C=C(C)CN(CC)c1c([N+](=O)[O-])cc(C(F)(F)F)cc1[N+](=O)[O-]"
observed_result = "inactive"

[[record]]
compound = "COP(=O)(OC)O/C(C)=C/C(=O)N(C)C"
observed_result = "inactive"

[[record]]
compound = "Nc1c(Cl)c(Cl)nc(C(=O)O)c1Cl"
observed_result = "inactive"


* * *

Read-out: Monocyte Chemoattractant Protein-1 (MCP1), CCL2 (gene 6347)
Assay: BSK_CASM3C_MCP1: BioMAP Diversity Plus: CASM3C Assay for Monocyte Chemoattractant Protein-1 (MCP1) Biomarker Activity (AID 2283046);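 further: MCP-1 level quantified by ELISA 24 h after dosing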
Conditions: primary human coronary artery smooth muscle cells; actives raise or lower the signal
Active and inactive are the calls of the source. How the source made its calls: active means hit-call score of the fitted dose curve at least 0.9, where 1 is the maximum; inactive means score below 0.9.
Outcome codes: yes (active), no (inactive)

[[record]]
compound = "N#Cc1c(Cl)cccc1Cl"
classification = "no"

[[record]]
compound = "COCC(C)N(C(=O)CCl)c1c(C)csc1C (stereo unspecified)"
classification = "no"

[[record]]
compound = "COC(=O)NC(=S)Nc1ccccc1NC(=S)NC(=O)OC"
classification = "no"

[[record]]
compound = "Clc1cccc(C(Cl)(Cl)Cl)n1"
classification = "no"

[[record]]
compound = "CC1(C)CON(Cc2ccccc2Cl)C1=O"
classification = "no"

[[record]]
compound = "C=CCOC(=O)C(C)(C)OC(=O)c1cc(-n2c(=O)cc(C(F)(F)F)n(C)c2=O)ccc1Cl"
classification = "yes"

